- assay: Cytotoxicity against Homo sapiens (human) LS180 cells after 96 hr by MTT assay
- Assay type: functional, cell-based
- cond: LS180, 96 h
// IC50 lookup, one value per entry
reported-endpoint: IC50

{"molecule": "O=C1CCCC2=C1C(c1ccccc1Br)c1c(c3ccccc3oc1=O)O2 (configuration not stated)", "endpoint-value": "> 100 µM"}
{"molecule": "O=C1CCCC2=C1C(c1ccccc1[N+](=O)[O-])c1c(c3ccccc3oc1=O)O2 (configuration not stated)", "endpoint-value": "> 100 µM"}
{"molecule": "O=C1CCCC2=C1C(c1ccc(Br)cc1)c1c(c3ccccc3oc1=O)O2 (configuration not stated)", "endpoint-value": "> 100 µM"}
{"molecule": "O=C1CCCC2=C1C(c1cccc(Br)c1)c1c(c3ccccc3oc1=O)O2 (configuration not stated)", "endpoint-value": "83.8 µM"}
{"molecule": "O=C1CCCC2=C1C(c1cccc([N+](=O)[O-])c1)c1c(c3ccccc3oc1=O)O2 (configuration not stated)", "endpoint-value": "> 100 µM"}
{"molecule": "Cc1cccc(C2C3=C(CCCC3=O)Oc3c2c(=O)oc2ccccc32)c1 (configuration not stated)", "endpoint-value": "> 100 µM"}
{"molecule": "O=C1CCCC2=C1C(c1cccc(Cl)c1)c1c(c3ccccc3oc1=O)O2 (configuration not stated)", "endpoint-value": "> 50 µM"}
